- SYSTEM TESTED: T1, Recombinant human CD4 (R&D Systems, Cat. 10327-CD) (human, UniProt P01730 26-390, limits assumed)
- T1 construct: Bought protein; also called huCD4
- MEASUREMENT DESCRIPTION: BLI (Octet Red384), purified antibody on anti-mouse Fc sensors, human CD4 100/50/25 nM, global 1:1 fit;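 further: antibodies loaded at 10 µg/mL, curves fitted across association and dissociation phases, with an unrelated mouse-derived antibody serving as internal reference control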

BINDER: 75110_05K11A (antibody, V domains shown, Tested as antibody purified from AlivaMab Mouse Kappa hybridoma (human V regions, kappa light chain, mouse Fc captured by anti-mouse Fc sensors)) VH: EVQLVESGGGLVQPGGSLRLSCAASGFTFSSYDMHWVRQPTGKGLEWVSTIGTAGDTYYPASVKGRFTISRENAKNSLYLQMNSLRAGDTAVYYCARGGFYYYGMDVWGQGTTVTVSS VL: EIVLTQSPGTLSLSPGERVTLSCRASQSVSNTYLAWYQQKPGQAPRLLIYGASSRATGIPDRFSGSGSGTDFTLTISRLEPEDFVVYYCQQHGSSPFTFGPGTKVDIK
koff: < 1e-07 s⁻¹
--
BINDER: 75110_08M20A (antibody, V domains shown, Tested as antibody purified from AlivaMab Mouse Kappa hybridoma (human V regions, kappa light chain, mouse Fc captured by anti-mouse Fc sensors)) VH: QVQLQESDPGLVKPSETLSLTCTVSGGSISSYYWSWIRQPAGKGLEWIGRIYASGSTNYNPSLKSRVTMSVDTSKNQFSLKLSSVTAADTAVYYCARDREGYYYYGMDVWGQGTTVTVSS VL: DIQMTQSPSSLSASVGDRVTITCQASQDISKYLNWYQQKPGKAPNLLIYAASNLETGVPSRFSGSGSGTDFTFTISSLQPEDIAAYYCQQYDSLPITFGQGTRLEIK
koff: 0.00091 s⁻¹
--
BINDER: 75110_08H11A (antibody, V domains shown, Tested as antibody purified from AlivaMab Mouse Kappa hybridoma (human V regions, kappa light chain, mouse Fc captured by anti-mouse Fc sensors); also called 75110_08H1lA) VH: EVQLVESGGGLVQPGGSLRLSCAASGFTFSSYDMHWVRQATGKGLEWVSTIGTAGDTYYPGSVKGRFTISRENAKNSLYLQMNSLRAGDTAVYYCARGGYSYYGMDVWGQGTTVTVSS VL: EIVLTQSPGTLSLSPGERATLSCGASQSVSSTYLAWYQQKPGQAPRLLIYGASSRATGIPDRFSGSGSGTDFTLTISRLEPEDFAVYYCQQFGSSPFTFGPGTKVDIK
koff: 3.6e-05 s⁻¹
